Target: AMDV VP2 (Aleutian mink disease virus, UniProt A0A168PAM8 200-588)
Assay: ELONA
Settings: protein: recombinant; tags: His
Each record here notes measured Kd.

binder: ADVa011 (ssDNA) DNA: AGCAGCACAGAGGTCAGATGGGGTTGTCGGTGTTTGCGGGCCTATGCGTGCTACCGTGAACCTATGCGTGCTACCGTGAA
Kd: 2090 nM
//
binder: ADVa001 (ssDNA) DNA: AGCAGCACAGAGGTCAGATGGTGTGTGTGTGTGTGTGTGTGCCTATGCGTGCTACCGTGACCTATGCGTGCTACCGTGAA
Kd: 566 nM
//
binder: ADVa014 (ssDNA) DNA: AGCAGCACAGAGGTCAGATGTGTTGTCCCGGGGCCCTATGCGTGCTACCGTGAATAGCGTCCTATGCGTGCTACCGTGAA
Kd: 247 nM
//
binder: ADVa012 (ssDNA) DNA: AGCAGCACAGAGGTCAGATGAGCTAGTGCCTATGCGTGCTACCGTGAATAGCGTCAGCAGCCTATGCGTGCTACCGTGAA
Kd: 930 nM

Source listed as paper PMC7907208.
